ASSAY: S. cerevisiae growth inhibition in permissive medium (OD615), pilot counter-assay for S. cerevisiae lifespan shortening project, permissive growth control (AID 705)
CONDITION DETAILS: OD615, 24 h, at 10 µM, active compounds read high
Returns met if the recorded growth inhibition is greater than or equal to -10%, and not met otherwise.

**Query** In plain terms: is recorded growth inhibition at least -10% for FC(F)(F)c1nc(N2CCN(c3ccccc3)CC2)nc2c1CCCCC2 ?
**Result** not met

**Query** Follow-up item: CC(=O)Oc1ccc(C(=O)Nc2nnc(C)s2)cc1
**Result** not met

**Query** Follow-up item: CN(C)CCCNc1ncnc2c1cnn2-c1ccccc1
**Result** met

**Query** Follow-up item: Cc1ccc(N(C)C(=O)N2CCN(c3ccccn3)CC2)cc1
**Result** met

* * *

ASSAY: HUVEC growth inhibition – cell-based, human, primary screen (AID 575);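 further: 100% = median of untreated cell wells with 0.1% DMSO on each plate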
CONDITION DETAILS: HUVEC proliferation, CellTiter-Glo luminescence, 72 h; at 10 µM; active compounds read low
satisfied if viability is below 90%. not satisfied if not; exact matches included in not satisfied.

**Query** Dear reviewer, please state whether O=C(Nc1cccnc1)Nc1ccccn1 has viability strictly beneath 90%.
**Result** not satisfied

**Query** Follow-up item: Cc1c(C(=O)OCc2ccccc2)[nH]c2c1C(=O)CC(c1ccco1)C2 (stereo unspecified)
**Result** satisfied

**Query** Follow-up item: CCCCOCCCNC(=O)c1ccc(NC(C)=O)cc1
**Result** satisfied

**Query** Follow-up item: Cc1nc2ccc(S(=O)(=O)NC(C(=O)NCc3cccs3)C(C)C)cc2s1 (stereo unspecified)
**Result** not satisfied

**Query** Follow-up item: COC(=O)CSC1=C(C#N)C(c2ccc(F)cc2)CC(=O)N1 (stereo unspecified)
**Result** not satisfied

**Query** Follow-up item: c1ccc2c(c1)ccc1nnc(-c3ccc4c(c3)OCO4)n12
**Result** not satisfied

**Query** Follow-up item: CCc1ccccc1NC(=O)c1cnc2n(c1=O)CCS2
**Result** not satisfied

**Query** Follow-up item: Cn1c(=O)c2c(nc(CN3CCc4ccccc4C3)n2Cc2cccc(Cl)c2)n(C)c1=O
**Result** satisfied

**Query** Follow-up item: COc1cccc(C2CC(c3c(Cl)cccc3Cl)n3nc(N)nc3N2)c1 (stereo unspecified)
**Result** satisfied

**Query** Follow-up item: COCCn1c(=O)[nH]c2cc(C(=O)NCCCN3CCN(c4ccc(F)cc4)CC3)ccc2c1=O
**Result** not satisfied

**Query** Follow-up item: Cc1ccc(CNC(=O)C2CCCN(S(=O)(=O)c3cnc[nH]3)C2)cc1 (stereo unspecified)
**Result** not satisfied

**Query** Follow-up item: COc1cccc(-n2c(SCC(=O)Nc3cc(C)on3)nc3c([nH]c4ccccc43)c2=O)c1
**Result** satisfied

**Query** Follow-up item: CCOC(=O)N1CCN(Cc2nc3c(c(=O)n(C)c(=O)n3C)n2Cc2ccc(F)cc2)CC1
**Result** not satisfied

**Query** Follow-up item: COCCN(CCOC)Cc1c(C)[nH]c2ccccc2c1=O
**Result** not satisfied

**Query** Follow-up item: CCOc1ccc(-c2nnc3sc(-c4c(OC)cccc4OC)nn23)cc1
**Result** satisfied

**Query** Follow-up item: CCOC(=O)Cn1c(=O)c(-c2ccccc2N)nc2ccccc21
**Result** satisfied

**Query** Follow-up item: CCCCn1c(CN2CCN(c3ccccc3)CC2)nc2c1c(=O)n(C)c(=O)n2C
**Result** satisfied

**Query** Follow-up item: COc1cc2c(cc1OC)-c1nnc(C)n1C1(CCCC1)C2
**Result** not satisfied

**Query** Follow-up item: Cc1c(Cl)cccc1NC(=O)CCN1CCCCC1
**Result** not satisfied

**Query** Follow-up item: O=C(Nc1ccc(N2CCCC2)cc1)c1ccc(Br)o1
**Result** not satisfied

**Query** Follow-up item: CC(C)n1c(CN2CCN(C)CC2)nc2c1c(=O)n(C)c(=O)n2C
**Result** not satisfied

**Query** Follow-up item: Cc1ccc(C2CC(c3ccc(C)cc3)n3nc(N)nc3N2)cc1 (stereo unspecified)
**Result** not satisfied

**Query** Follow-up item: CCCNC(=O)C1CC(=O)N(c2ccc(OCC(=O)Nc3cc(C)cc(C)c3)cc2)C1 (stereo unspecified)
**Result** satisfied

**Query** Follow-up item: CC(C)c1ncc(C(O)c2cccc3ccccc23)n1C (stereo unspecified)
**Result** not satisfied

**Query** Follow-up item: CN1C(=O)C(O)(CC(=O)c2ccccc2O)c2cc(Br)ccc21 (stereo unspecified)
**Result** satisfied

**Query** Follow-up item: CCOc1cccc(OCCCCn2ccnc2)c1
**Result** not satisfied

* * *

ASSAY: viability of HCT116 without oncogenic beta-catenin – human colon tumor cells, pilot screen (AID 823);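 further: 0% = wells killed by 20 µM Hyamine and 100% = untreated DMSO cell wells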
CONDITION DETAILS: HCT116 beta-catenin knockout viability, CellTiter-Glo, 60 h; at 10 µM; active compounds read low
Records with an inconclusive call do not appear.
VALUE KIND: viability (%)
Answer with a number only, understood to be in %.

**Query** Give its viability value. Item: CCCCOCCCNC(=O)COc1ccccc1
**Result** 94.5

**Query** Follow-up item: O=C(Cc1cccs1)N(Cc1ccco1)C1(C(=O)NC2CCCC2)CCCCC1
**Result** 66.5

**Query** Follow-up item: COc1ccc(NC(=O)C2CCCN(S(=O)(=O)c3cccc4cccnc34)C2)cc1OC (configuration not stated)
**Result** 80.3

**Query** Follow-up item: COc1ccc(N(CC(=O)NC2CCCCCCC2)S(=O)(=O)c2c(C)nn(C)c2C)cc1
**Result** 89.2

**Query** Follow-up item: CCCCCn1c(=O)[nH]c2cc(C(=O)NCCCN3CCCCC3)ccc2c1=O
**Result** 75.1

**Query** Follow-up item: O=C1c2ccccc2C(Nc2ccc3c(c2)OCCO3)N1Cc1ccc2c(c1)OCO2 (configuration not stated)
**Result** 82.2

**Query** Follow-up item: CCCOC(=O)c1ccc(NC(=O)c2ccoc2C)cc1
**Result** 75.5

* * *

ASSAY: S. cerevisiae growth inhibition in restrictive medium, OD615, pilot screen, restrictive growth control, yeast lifespan reduction project (AID 706);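 further: modified DeaD lifespan yeast strain shifted to restrictive glucose medium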
CONDITION DETAILS: OD615, 48 h, at 10 µM, active compounds read high
VALUE KIND: growth inhibition (%)
Answer with a number only, understood to be in %.

**Query** Give its growth inhibition value. Item: NS(=O)(=O)c1ccc(CCNC2CC(=O)N(CCc3ccccc3)C2=O)cc1 (stereo not given)
**Result** -16

**Query** Follow-up item: COc1ccc(N2C(=O)CC(c3ccc(OC(C)C)cc3)C2=O)cc1 (stereo not given)
**Result** -8.6

**Query** Follow-up item: CCOC(=O)c1ccc(NS(=O)(=O)c2ccc3c(c2)oc(=O)n3C)cc1
**Result** 3.2

**Query** Follow-up item: CCN1C(=C2C(=O)c3ccccc3C2=O)C=Cc2ccccc21
**Result** -27.6

**Query** Follow-up item: COc1ccc(C(=O)CN2C3=NCCCN3c3ccccc32)cc1OC
**Result** -6.88

**Query** Follow-up item: COc1ccc(N2CCN(Cc3nc4c(c(=O)n(C)c(=O)n4C)n3Cc3ccccc3C)CC2)cc1
**Result** -24.9

**Query** Follow-up item: CC(=O)NCc1cn2c(C)csc2n1
**Result** -3.26

**Query** Follow-up item: CCCCSc1nc2c(cnn2-c2ccc(F)cc2)c(=O)[nH]1
**Result** -3.62

**Query** Follow-up item: COc1ccc(N2CCN(C(=O)CSc3ccccc3)CC2)cc1
**Result** 11.6

**Query** Follow-up item: CCOCCn1c(CN2CCN(CC)CC2)nc2c1c(=O)n(C)c(=O)n2C
**Result** 1.91

**Query** Follow-up item: CCCc1cc(=O)[nH]c(SCC(=O)NC2CCCCC2)n1
**Result** 0.01

**Query** Follow-up item: Brc1ccccc1-c1nc(-c2ccccc2)no1
**Result** 8.43

**Query** Follow-up item: CCOC(=O)N1CCN(c2nc(=S)n(-c3ccccc3)c(C)c2C(C)=O)CC1
**Result** 28.8

**Query** Follow-up item: COc1cccc2cc(C(=O)N3CCN(c4ccc(C)cc4C)CC3)c(=O)oc12
**Result** 5.05

**Query** Follow-up item: COc1ccc(NC(=O)CC2Sc3ncnn3C2=O)cc1 (stereo not given)
**Result** 22.2

* * *

What inhibition was measured for each of the following?
ASSAY: RAM pathway blockade in budding yeast – dse1pr::URA3 reporter, 5-FOA selection, pilot screen (AID 869);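 further: 0% = DMSO wells with no growth and 100% = 10 µM 1-NA-PP1 with full growth; RAM network block rescues cells from 5-FOA so hits raise OD615 growth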
CONDITION DETAILS: S. cerevisiae dse1pr::URA3 5-FOA growth, OD615, 2 d; at 10 µM; active compounds read high; strain carries analog-sensitive mutant Cbk1 kinase
Answer with a number only, understood to be in %.

**Query** Give its inhibition value. Item: CCC1CCCCN1C(=O)CSc1nnc(-c2ccc(OC)cc2)o1 (stereo not drawn)
**Result** 2.38

**Query** Follow-up item: Cc1ccc(-c2nc(CS(=O)CC(=O)NCc3ccccn3)c(C)o2)cc1 (stereo not drawn)
**Result** 0.745

**Query** Follow-up item: O=C(NCC1COc2ccccc2O1)C1CCCN(S(=O)(=O)c2cccc3cccnc23)C1 (stereo not drawn)
**Result** 2.7

**Query** Follow-up item: O=C(NCc1cccnc1)NC1(C(F)(F)F)Oc2ccc(Cl)cc2O1 (stereo not drawn)
**Result** 0.4

**Query** Follow-up item: COc1cc(OC)cc(C(=O)Nc2cccc(NC(C)=O)c2)c1
**Result** 2.15

**Query** Follow-up item: O=C(CN1CCN(Cc2ccc(F)cc2Cl)C1=O)NCCCN1CCOCC1
**Result** 0.47

**Query** Follow-up item: Cc1nnc(SCC(=O)Nc2sc3c(c2C#N)CCCC3)[nH]c1=O
**Result** 0.455

**Query** Follow-up item: O=C(Nn1c(=S)[nH]c2ccccc2c1=O)c1ccncc1
**Result** 1.75

**Query** Follow-up item: O=c1c2ccccc2nc2n1CCN2
**Result** 1.84

**Query** Follow-up item: Cc1ccccc1-n1nc2c(c1NC(=O)c1cccc(F)c1)CS(=O)C2 (stereo not drawn)
**Result** 0.835

**Query** Follow-up item: CN1CCN(C(=O)C2CCN(S(=O)(=O)c3ccc4c(c3)oc(=O)n4C)CC2)CC1
**Result** 2.46

**Query** Follow-up item: COc1cc(NC(=O)c2nccnc2C(=O)O)cc(OC)c1
**Result** 2.17

**Query** Follow-up item: Cc1cc(C)n2nc(SCc3nc4ccccc4[nH]3)nc2n1
**Result** 1.77

**Query** Follow-up item: CCSc1nnc2c(n1)OC1(CCCC1)Nc1ccccc1-2
**Result** 1.45

**Query** Follow-up item: Cc1noc(C)c1S(=O)(=O)N1CCN(C(c2ccccc2)c2ccc(Cl)cc2)CC1 (stereo not drawn)
**Result** 1.61

**Query** Follow-up item: Cc1ccc(C(C(=O)NC2CCCCC2)N2CCCC2)cc1 (stereo not drawn)
**Result** 0.835

**Query** Follow-up item: COc1ccc(-n2ncc3c(N4CCN(c5cccc(C)c5C)CC4)ncnc32)cc1
**Result** 1.51

**Query** Follow-up item: CCCCOC(=O)Cc1c(O)c2ccccc2[nH]c1=O
**Result** 1.82

**Query** Follow-up item: O=C(CCCCn1c(=O)[nH]c2ccccc2c1=O)NCCc1c[nH]c2ccccc12
**Result** 0.945

**Query** Follow-up item: COc1ccccc1N1CCN(C(=O)CCCn2c(=O)[nH]c3ccsc3c2=O)CC1
**Result** 0.74

**Query** Follow-up item: COc1ccc(NC(=O)C2CCCN2S(=O)(=O)c2cccc3cccnc23)c(OC)c1 (stereo not drawn)
**Result** 0.91

**Query** Follow-up item: O=C(Cn1ncc2c1-c1ccccc1OC2)N1CCc2ccccc21
**Result** -0.23

**Query** Follow-up item: CC(=O)N1c2c(cc(Br)cc2S(=O)(=O)NCC2COc3ccccc3O2)CC1C (stereo not drawn)
**Result** 0.495

**Query** Follow-up item: CCOCCCNC(=O)CN1CCN(Cc2ccccc2C)C1=O
**Result** 1.54

**Query** Follow-up item: CCOC(=O)N1CCN(C(=O)COc2ccc(Br)cc2)CC1
**Result** 1.12

**Query** Follow-up item: COc1ccc(NC(=O)CSc2nnc(Cc3cccn3C)n2-c2ccc(F)cc2)cc1
**Result** 2.56

**Query** Follow-up item: NC(=O)C1CCN(C(=O)c2cnn(-c3ccccc3)c2NC(=O)c2ccco2)CC1
**Result** 1.67

**Query** Follow-up item: Cc1cc(C)c(OCC(=O)Nc2cccc(NC(=O)c3ccco3)c2)c(Br)c1
**Result** 0.45

**Query** Follow-up item: C#CCOC(=O)C1C2C=CC(C2)C1C(=O)O (stereo not drawn)
**Result** -0.215

**Query** Follow-up item: COc1ccc(OC)c(NC(=O)c2nnn(Cc3ccc(Br)cc3F)c2N)c1
**Result** 1.21

**Query** Follow-up item: CC(C)CCNC(=O)Cn1c(NCCC(C)C)nc2c1c(=O)n(C)c(=O)n2C
**Result** 0.94

**Query** Follow-up item: O=C(Nc1cnccn1)c1cccs1
**Result** 0.89

**Query** Follow-up item: COCCOC(=O)C1=C(C)N=c2s/c(=C\c3cccs3)c(=O)n2C1c1cccs1 (stereo not drawn)
**Result** 2.83

**Query** Follow-up item: CCOC(=O)c1sc2nc(NC(=O)C3CCCCC3)sc2c1C
**Result** 3.21

**Query** Follow-up item: COc1nnc(-c2ccc(C)c(S(=O)(=O)NCCO)c2)c2ccccc12
**Result** -0.06

**Query** Follow-up item: CCn1c(C(=O)NC(C)c2ccc3c(c2)OCCO3)cc2sccc21 (stereo not drawn)
**Result** 1.62

**Query** Follow-up item: Cc1ccc(CNC(=O)c2cc3c(=O)n(C)c4ccccc4c3n2C)o1
**Result** 2.61

**Query** Follow-up item: COc1ccc(NC(=O)CSc2nnc(Cc3cccn3C)n2-c2ccc(F)cc2)cc1OC
**Result** 1.43
